Examples of compounds with documented Bliss excess follow.
Test system: NH-12 (Neuroblastoma)
Run Description: Bliss excess, mean over the matrix (fraction); higher = more synergy

- Compound: "COc1cccc(OCCCN)c1-c1cc(Nc2cnc(C#N)cn2)n[nH]1 [Prexasertib] + C=CCn1c(=O)c2cnc(Nc3ccc(N4CCN(C)CC4)cc3)nc2n1-c1cccc(C(C)(C)O)n1 [AZD1775] (first compound max 1 µM, partner max 1 µM)"
  System Name: "NH-12 (Neuroblastoma)"
  Experimental Value: 0.047

Next item in the queue.
Query :: Supply recorded Bliss excess for CS(=O)(=O)CCNCc1ccc(-c2ccc3ncnc(Nc4ccc(OCc5cccc(F)c5)c(Cl)c4)c3c2)o1 [Lapatinib] + C[C@@H](Oc1cc(-c2cnn(C3CCNCC3)c2)cnc1N)c1c(Cl)ccc(F)c1Cl [Crizotinib] (first compound max 10 µM, 7x7, partner max 10 µM) here.
Result :: -0.0827

###

Tested on: LOU-NH91 (Squamous Cell Lung Carcinoma)
Run Description: combination Emax (second highest fraction inhibited in the dose matrix, 72 h); higher = more inhibition; extreme values may be limits of the assay
Metric Name: combination Emax
Respond with the number and no other words.

Consider the following illustrative entries.
- Molecule: "NC1(C(=O)N[C@@H](CCO)c2ccc(Cl)cc2)CCN(c2ncnc3[nH]ccc23)CC1 [Capivasertib] + CC(C)n1c(=O)n(C)c2cnc3cc(F)c(-c4ccc(OCCCN5CCCCC5)nc4)cc3c21 [AZD1390] (first compound max 10 µM, 7x7, partner max 0.3 µM)"
  combination Emax: 0.456
- Molecule: "COc1cccc(OCCCN)c1-c1cc(Nc2cnc(C#N)cn2)n[nH]1 [Prexasertib] + C=CCn1c(=O)c2cnc(Nc3ccc(N4CCN(C)CC4)cc3)nc2n1-c1cccc(C(C)(C)O)n1 [AZD1775] (first compound max 1 µM, partner max 1 µM)"
  combination Emax: 0.716
- Molecule: "CC(=O)c1c(C)c2cnc(Nc3ccc(N4CCNCC4)cn3)nc2n(C2CCCC2)c1=O [Palbociclib] + CC1(C)CCC(CN2CCN(c3ccc(C(=O)NS(=O)(=O)c4ccc(NCC5CCOCC5)c([N+](=O)[O-])c4)c(Oc4cnc5[nH]ccc5c4)c3)CC2)=C(c2ccc(Cl)cc2)C1 [Venetoclax] (first compound max 10 µM, 7x7, partner max 1 µM)"
  combination Emax: 0.145
- Molecule: "CN(CCO)CC[C@H](CSc1ccccc1)Nc1ccc(S(=O)(=O)NC(=O)c2ccc(N3CCC([C@@H](O)c4ccccc4-c4ccc(Cl)cc4)CC3)cc2)cc1S(=O)(=O)C(F)(F)F [AZD4320] + Cc1cc2ncnn2cc1Nc1ncc2c(n1)n(C1CCOCC1)c(=O)n2C [AZD7648] (first compound max 1 µM, 7x7, partner max 10 µM)"
  combination Emax: 0.346
- Molecule: "Cc1c2c(nn1C)CSCc1cc(n(C)n1)CSc1cc(c3ccccc3c1)OCCCc1c(C(=O)O)n(C)c3c-2c(Cl)ccc13 [AZD5991] + C=CCn1c(=O)c2cnc(Nc3ccc(N4CCN(C)CC4)cc3)nc2n1-c1cccc(C(C)(C)O)n1 [AZD1775] (first compound max 1 µM, partner max 1 µM)"
  combination Emax: 0.556

Query :: Supply recorded combination Emax for COc1cccc(OCCCN)c1-c1cc(Nc2cnc(C#N)cn2)n[nH]1 [Prexasertib] + CN(C)CCCOc1ccc(-c2ccc3ncc4c(c3c2)n(C2CCOCC2)c(=O)n4C)cn1 [AZD0156] (first compound max 1 µM, 7x7, partner max 1 µM) here.
Result :: 0.445

Query :: Supply recorded combination Emax for COc1nnc2ccc(N3CCC(c4ccc(OCCN5CCN(C)C(=O)[C@H]5C)cc4)CC3)nn12 [AZD5153] + CN(CC[C@H](CSC1=CC=CC=C1)NC2=C(C=C(C=C2)S(=O)(=O)NC(=O)C3=CC=C(C=C3)N4CCC(CC4)[C@H](C5=CC=CC=C5C6=CC=C(C=C6)Cl)O)S(=O)(=O)C(F)(F)F)CCO [AZD4320] (first compound max 1 µM, 7x7, partner max 1 µM) here.
Result :: 0.781

Query :: Supply recorded combination Emax for Cc1cc2ncnn2cc1Nc1ncc2c(n1)n(C1CCOCC1)c(=O)n2C [AZD7648] + C[C@@H]1COCCN1C2=NC(=NC(=C2)C3(CC3)[S@](=N)(=O)C)C4=C5C=CNC5=NC=C4 [AZD6738] (first compound max 10 µM, 7x7, partner max 10 µM) here.
Result :: 0.295

Query :: Supply recorded combination Emax for Cc1c2c(nn1C)CSCc1cc(n(C)n1)CSc1cc(c3ccccc3c1)OCCCc1c(C(=O)O)n(C)c3c-2c(Cl)ccc13 [AZD5991] + C1CN(CCC1(C(=O)N[C@@H](CCO)C2=CC=C(C=C2)Cl)N)C3=NC=NC4=C3C=CN4 [Capivasertib] (first compound max 1 µM, 7x7, partner max 3 µM) here.
Result :: 0.427

Query :: Supply recorded combination Emax for COc1cc2c(cc1OCCCCCOc1cc3c(cc1OC)C(=O)N1C=C(C)C[C@H]1C=N3)N=C[C@@H]1CC(C)=CN1C2=O [SG3199] + O=C(c1cc(Cc2n[nH]c(=O)c3ccccc23)ccc1F)N1CCN(C(=O)C2CC2)CC1 [Olaparib] (first compound max 0.001 µM, 7x7, partner max 10 µM) here.
Result :: 0.175

Query :: Supply recorded combination Emax for Cc1c2c(nn1C)CSCc1cc(n(C)n1)CSc1cc(c3ccccc3c1)OCCCc1c(C(=O)O)n(C)c3c-2c(Cl)ccc13 [AZD5991] + CCN(CCO)CCCOc1ccc2c(Nc3cc(CC(=O)Nc4cccc(F)c4)[nH]n3)ncnc2c1 [AZD2811] (first compound max 1 µM, 7x7, partner max 1 µM) here.
Result :: 0.612

Query :: Supply recorded combination Emax for Cc1cc2ncnn2cc1Nc1ncc2c(n1)n(C1CCOCC1)c(=O)n2C [AZD7648] + O=C(c1cc(Cc2n[nH]c(=O)c3ccccc23)ccc1F)N1CCN(C(=O)C2CC2)CC1 [Olaparib] (first compound max 10 µM, 7x7, partner max 10 µM) here.
Result :: 0.186

Query :: Supply recorded combination Emax for COc1nnc2ccc(N3CCC(c4ccc(OCCN5CCN(C)C(=O)[C@H]5C)cc4)CC3)nn12 [AZD5153] + C=CCn1c(=O)c2cnc(Nc3ccc(N4CCN(C)CC4)cc3)nc2n1-c1cccc(C(C)(C)O)n1 [AZD1775] (first compound max 1 µM, partner max 1 µM) here.
Result :: 0.948

###

Examples of molecules with documented Bliss excess follow.
Test system: NCI-H1573 (Lung Adenocarcinoma)
Run Description: Bliss excess, mean over the matrix (fraction); higher = more synergy

Consider the following illustrative entries.
- Molecule: "CN(CCO)CC[C@H](CSc1ccccc1)Nc1ccc(S(=O)(=O)NC(=O)c2ccc(N3CCC([C@@H](O)c4ccccc4-c4ccc(Cl)cc4)CC3)cc2)cc1S(=O)(=O)C(F)(F)F [AZD4320] + Cc1cc2ncnn2cc1Nc1ncc2c(n1)n(C1CCOCC1)c(=O)n2C [AZD7648] (first compound max 1 µM, 7x7, partner max 10 µM)"
  Metric Name: "Bliss excess"
  Experimental Value: -0.0358
- Molecule: "CC1(C)CCC(CN2CCN(c3ccc(C(=O)NS(=O)(=O)c4ccc(NCC5CCOCC5)c([N+](=O)[O-])c4)c(Oc4cnc5[nH]ccc5c4)c3)CC2)=C(c2ccc(Cl)cc2)C1 [Venetoclax] + C1CN(CCC1(C(=O)N[C@@H](CCO)C2=CC=C(C=C2)Cl)N)C3=NC=NC4=C3C=CN4 [Capivasertib] (first compound max 1 µM, 7x7, partner max 3 µM)"
  Metric Name: "Bliss excess"
  Experimental Value: -0.0733

Next item in the queue.
Query :: Supply recorded Bliss excess for NC1(C(=O)N[C@@H](CCO)c2ccc(Cl)cc2)CCN(c2ncnc3[nH]ccc23)CC1 [Capivasertib] + CC(C)n1c(=O)n(C)c2cnc3cc(F)c(-c4ccc(OCCCN5CCCCC5)nc4)cc3c21 [AZD1390] (first compound max 10 µM, 7x7, partner max 0.3 µM) here.
Result :: -0.111

###

Test system: EW-13 (Ewing's Sarcoma)
Run Description: combination Emax (second highest fraction inhibited in the dose matrix, 72 h); higher = more inhibition; extreme values may be limits of the assay
We use 0.3 as the dividing line for combination Emax: on or above the line is label 1, below is label 0.

- Compound: "CC1(C)CCC(CN2CCN(c3ccc(C(=O)NS(=O)(=O)c4ccc(NCC5CCOCC5)c([N+](=O)[O-])c4)c(Oc4cnc5[nH]ccc5c4)c3)CC2)=C(c2ccc(Cl)cc2)C1 [Venetoclax] + C=CCn1c(=O)c2cnc(Nc3ccc(N4CCN(C)CC4)cc3)nc2n1-c1cccc(C(C)(C)O)n1 [AZD1775] (first compound max 1 µM, partner max 1 µM)"
  System Name: "EW-13 (Ewing's Sarcoma)"
  Label: "label 0"
- Compound: "Cn1cnc2c(F)c(Nc3ccc(Br)cc3Cl)c(C(=O)NOCCO)cc21 [Selumetinib] + CC(C)n1c(=O)n(C)c2cnc3cc(F)c(-c4ccc(OCCCN5CCCCC5)nc4)cc3c21 [AZD1390] (first compound max 10 µM, 7x7, partner max 0.3 µM)"
  System Name: "EW-13 (Ewing's Sarcoma)"
  Label: "label 0"
- Compound: "COc1nnc2ccc(N3CCC(c4ccc(OCCN5CCN(C)C(=O)[C@H]5C)cc4)CC3)nn12 [AZD5153] + Cn1cnc2c(F)c(Nc3ccc(Br)cc3Cl)c(C(=O)NOCCO)cc21 [Selumetinib] (first compound max 1 µM, 7x7, partner max 10 µM)"
  System Name: "EW-13 (Ewing's Sarcoma)"
  Label: "label 1"
- Compound: "CC(=O)c1c(C)c2cnc(Nc3ccc(N4CCNCC4)cn3)nc2n(C2CCCC2)c1=O [Palbociclib] + Cc1c2c(nn1C)CSCc1cc(n(C)n1)CSc1cc(c3ccccc3c1)OCCCc1c(C(=O)O)n(C)c3c-2c(Cl)ccc13 [AZD5991] (first compound max 10 µM, 7x7, partner max 1 µM)"
  System Name: "EW-13 (Ewing's Sarcoma)"
  Label: "label 1"
- Compound: "NC1(C(=O)N[C@@H](CCO)c2ccc(Cl)cc2)CCN(c2ncnc3[nH]ccc23)CC1 [Capivasertib] + CCN(CCO)CCCOc1ccc2c(Nc3cc(CC(=O)Nc4cccc(F)c4)[nH]n3)ncnc2c1 [AZD2811] (first compound max 10 µM, 7x7, partner max 1 µM)"
  System Name: "EW-13 (Ewing's Sarcoma)"
  Label: "label 1"
- Compound: "Cc1nc(Nc2ncc(C(=O)Nc3c(C)cccc3Cl)s2)cc(N2CCN(CCO)CC2)n1 [Dasatinib] + CC(=O)Nc1cccc(-n2c(=O)n(C3CC3)c(=O)c3c(Nc4ccc(I)cc4F)n(C)c(=O)c(C)c32)c1 [Trametinib] (first compound max 2 µM, 7x7, partner max 1 µM)"
  System Name: "EW-13 (Ewing's Sarcoma)"
  Label: "label 0"

Okay, now this compound:
Query :: Please indicate if the recorded combination Emax for CN(CCO)CC[C@H](CSc1ccccc1)Nc1ccc(S(=O)(=O)NC(=O)c2ccc(N3CCC([C@@H](O)c4ccccc4-c4ccc(Cl)cc4)CC3)cc2)cc1S(=O)(=O)C(F)(F)F [AZD4320] + CCN(CCO)CCCOc1ccc2c(Nc3cc(CC(=O)Nc4cccc(F)c4)[nH]n3)ncnc2c1 [AZD2811] (first compound max 1 µM, 7x7, partner max 1 µM) meets or exceeds 0.3.
Result :: label 1
